Data provenance: PubChem BioAssay (NCI)

- Test system: HT29 colon
- Run Description: NCI-60 one-dose screen, 48 h (100 = growth as untreated, 0 = no growth, -100 = all killed)
- Condition: 10 µM unless noted
- Procedure: Growth inhibition of the HT29 human tumor cell line is measured as a screen for anti-cancer activity. Cells are grown in 96 well plates and exposed to the test compound for 48 hours. Compounds are tested at a single concentration, which is 10^-5 M for most compounds. The reported endpoint is percent growth (GI% or GIPRCNT), where numbers from 0 - 100% represent growth inhibition, and numbers from -100% - 0 represent cell death. For example, a value of 40 represents 60% growth inhibition. […]
This is part of a sample that, as a whole, favours compounds with a hit. Of some 83,000 tested, about 20% had one in any assay.
label 1 if growth is below 20%. label 0 if not; exact matches included in label 0.

INSERT INTO measurements (compound, class_assignment) VALUES
  ('O=S(=O)(Nc1ccc(C2CC2)cc1)c1ccc(-c2cnc(C3CC3)o2)cc1', 'label 0'),
  ('C#C[C@]1(O)CC[C@H]2[C@@H]3CC=C4c5sc(Nc6cc(OC)ccc6OC)nc5CC[C@]4(C)[C@H]3CC[C@@]21C', 'label 0'),
  ('Cn1cc(-c2nnc(N)nc2-c2cn(C)c3ccc(F)cc23)c2cc(F)ccc21', 'label 0'),
  ('CC1COc2c(N3CCN(C)CC3)c(F)cc3c(=O)c(C(=O)N/N=C/c4cc[nH]c4)cn1c23 (stereo unspecified)', 'label 1'),
  ('Cc1ccc(-c2cc3nc(C(Cl)Cl)nc(-c4ccccc4)n3n2)cc1', 'label 0');

Now look at this one.
In: Does the reported growth of COc1cc(/C=N/Nc2ccnc3cc(Cl)ccc23)cc(OC)c1O stay below 20%?
Out: label 1

====

- Tested on: 786-0 renal
- Run Description: NCI-60 one-dose screen, 48 h (100 = growth as untreated, 0 = no growth, -100 = all killed)
- Condition: 10 µM unless noted
This is part of a sample that, as a whole, favours compounds with a hit. Of some 83,000 tested, about 20% had one in any assay.
Entries and their growth
Field format: number, assumed %, no unit text.

Recorded growth, per entry:
INSERT INTO assay_data (chemical_smiles, system, measure, value) VALUES
  ('C=CCn1c(SCC(=O)Nc2cccc(C(=O)/C=C/c3ccc(Cl)cc3)c2)nc2ccccc2c1=O', '786-0 renal', 'growth', 98.2),
  ('Oc1ccc(CSc2nnc(-c3ccccc3)n2-c2ccccc2)c2cccnc12', '786-0 renal', 'growth', 18.7);

In: Please report growth for the following compound: C=C(C)C(=O)O[C@H]1C[C@@]2(C)OC(=CC2=O)/C(C)=C\[C@H]2OC(=O)C(=C)[C@H]12
Out: -71.3

In: Please report growth for the following compound: CCOC(=O)c1c(NC(=O)c2ccc(C(C)(C)C)cc2)sc2cc(OCCN3CCCCC3)ccc12
Out: 75.5

In: Please report growth for the following compound: O=C(Nc1cccc(-c2nc(-c3ccc(NC(=O)c4cccnc4)cc3Cl)no2)c1)Nc1ccc(NC(=O)C2CC2)c(C(F)(F)F)c1
Out: -47.5

In: Please report growth for the following compound: CCc1ccc(NC(=O)N[C@@H](Cc2cccc(F)c2)C(=O)N[C@@H]2C(=O)N3CCC[C@H]3C(=O)N3CCCC[C@H]3C(=O)N[C@@H](CO)C(=O)N3C[C@H](C)C[C@H]3C(=O)O[C@H]2C)c(F)c1
Out: 44.1

In: Please report growth for the following compound: O=C1/C(=C/c2ccccc2[N+](=O)[O-])Oc2ccc(O)cc21
Out: 46.3

In: Please report growth for the following compound: O=C1c2cc(Br)ccc2-n2c1nc1cc(Br)ccc1c2=O
Out: 88.5
